System: SR leukemia
test_method_notes: NCI-60 one-dose screen, 48 h (100 = growth as untreated, 0 = no growth, -100 = all killed)
recorded_conditions: 10 µM unless noted
Compounds without any hit were thinned out: in the full panel of roughly 83,000, 20% have a hit.
Decision: growth >= 50% yields Satisfied, all other cases yield Not satisfied.

Past entries and their recorded results:
>  <molecule>
Fc1cc2c(cc1Cl)N(c1ncnc3ccc(-c4cnc5[nH]ncc5c4)cc13)CC2

>  <cat>
Satisfied

$$$$
>  <molecule>
O=C(/C=C/c1cn(-c2ccccc2)nc1-c1ccc([N+](=O)[O-])cc1)c1ccc(Cl)cc1

>  <cat>
Not satisfied

$$$$
>  <molecule>
CN1CCN(Cc2ccc(NC(=O)c3cncc(C#Cc4cnc(N)c5ccccc45)c3)cc2C(F)(F)F)CC1

>  <cat>
Not satisfied

$$$$
>  <molecule>
CN(Cc1ccc(C(F)(F)F)cc1)CC(O)C(=O)Nc1ccc(Cl)cc1 (configuration not stated)

>  <cat>
Not satisfied

$$$$
>  <molecule>
CC/C(=C(/c1ccc(Cl)cc1)c1ccc(OCCN2CCCC2)cc1)c1ccc(OC)cc1

>  <cat>
Not satisfied

$$$$
>  <molecule>
C=C(C)[C@@H]1CC[C@]2(C(=O)OC)CC[C@]3(C)[C@H](CC[C@@H]4[C@@]5(C)C/C(=C/NC(N)=S)C(=O)C(C)(C)[C@@H]5CC[C@]43C)[C@@H]12

>  <cat>
Satisfied

$$$$
>  <molecule>
CCN(CC)c1ccc(/C=C/C(=O)c2ccc(Nc3nc(Nc4ccccc4)nc(Nc4ccccc4)n3)cc2)cc1

>  <cat>
Not satisfied

$$$$
>  <molecule>
O=C(NCCCCNC(=O)OCc1ccc2c(Cl)cc(Cl)c(O)c2n1)OCc1ccc2c(Cl)cc(Cl)c(O)c2n1

>  <cat>
Not satisfied

$$$$
>  <molecule>
COc1cc2c(c(OC)c1OC)-c1ccc(OC)c(=O)cc1[C@@H](NC(=O)CCl)CC2

>  <cat>
Not satisfied

$$$$
>  <molecule>
O=C1c2c(c3c4ccc(Br)cc4oc3c3[nH]c4ccccc4c23)C(=O)N1O

>  <cat>
Not satisfied

$$$$

Does the molecule CC1=C(Nc2ccc(N3CCN(C)CC3)cc2)C(=O)c2cncnc2C1=O have recorded growth that is 50% or more? Not satisfied

Does the molecule Cc1nc2c(=O)[nH]c(SCC(=O)Nc3cccc(F)c3)nc2[nH]c1=O have recorded growth that is 50% or more? Satisfied

Does the molecule CC(=O)OC[C@]12CCC(C)(C)C[C@H]1[C@@]1(O)[C@H](O)C[C@@H]3[C@@]4(C)CCCNC(C)(C)[C@@H]4CC[C@@]3(C)[C@]1(C)CC2 have recorded growth that is 50% or more? Satisfied

Does the molecule O=C(CCc1nnc(Cn2cnc3nc[nH]c3c2=O)o1)c1nc2ncccc2[nH]1 have recorded growth that is 50% or more? Satisfied

Does the molecule CCOC(=O)/C=C1\S/C(=N\Nc2cc(=O)[nH]c3ccc(Cl)cc23)N(c2ccccc2)C1=O have recorded growth that is 50% or more? Not satisfied

Does the molecule CC1(C)CC2=C3C=C[C@@H]4[C@@]5(C)CCC(=O)C(C)(C)[C@@H]5CC[C@@]4(C)[C@]3(C)CC[C@@]2(C(=O)O)CC1=O have recorded growth that is 50% or more? Satisfied

Does the molecule CCCCNc1ccc(C#N)c(OCCN(CC)CC)c1 have recorded growth that is 50% or more? Satisfied

Does the molecule O=C(Cn1c(-c2ccc([N+](=O)[O-])cc2)nc2ccccc21)NNC(=O)c1cccnc1 have recorded growth that is 50% or more? Satisfied

Does the molecule CNC(=O)c1cc(Oc2ccc3c(c2)sc2nc(-c4cc(OC)c(OC)c(OC)c4)cn23)ccn1 have recorded growth that is 50% or more? Not satisfied

Does the molecule O=c1c2cc(-c3ccccc3)sc2nc2sc(-c3ccccc3)nn12 have recorded growth that is 50% or more? Satisfied

Does the molecule Cc1nn(-c2ccccc2)c(Oc2ccccn2)c1-c1nc2ccccc2s1 have recorded growth that is 50% or more? Not satisfied

Does the molecule C/C(=N\NC(=O)c1ccccc1O)c1cccc(/C(C)=N/NC(=O)c2ccccc2O)n1 have recorded growth that is 50% or more? Not satisfied

Does the molecule CC(C)(C)n1cc(-c2ccnc(NCCNS(=O)(=O)c3cccc(F)c3)c2)c(-c2ccccc2)n1 have recorded growth that is 50% or more? Not satisfied

Does the molecule Cc1noc(C)c1C(=O)OCc1coc2ccccc2c1=O have recorded growth that is 50% or more? Not satisfied

Does the molecule O=C(Nc1nn(-c2ccc(Cl)cc2Cl)nc1-c1ccccc1)c1ccccc1 have recorded growth that is 50% or more? Not satisfied

Does the molecule Cc1oc(-c2ccc(Cl)cc2)nc1/C=C/C(=O)c1ccccc1 have recorded growth that is 50% or more? Satisfied

====

Test system: MDA-MB-231 breast
test_method_notes: NCI-60 one-dose screen, 48 h (100 = growth as untreated, 0 = no growth, -100 = all killed)
recorded_conditions: 10 µM unless noted
This is part of a sample that, as a whole, favours compounds with a hit. Of some 83,000 tested, about 20% had one in any assay.
Listing: growth of selected compounds
Only the number, expressed in %, is required.

The following compounds have reported results that may help.
>  <compound>
N#Cc1c(-c2ccc(Cl)cc2)nc(NN=Cc2cccc(O)c2)nc1N1CCOCC1

>  <unit>
%

>  <growth>
95.9

$$$$
>  <compound>
C=CCn1c(SCC(=O)Nc2ccc(C(=O)/C=C/c3cc4cc(OC)ccc4nc3Cl)cc2)nnc1-c1ccc(Br)cc1

>  <unit>
%

>  <growth>
80.5

$$$$

# growth (compound: O=C1c2c(c3c4ccccc4[nH]c3c3ccc4ccccc4c23)C(=O)N1CCN1CCCCC1 ) is 75.7

# growth (compound: CN1C(=O)/C(=C/c2ccc(C(=O)Nc3ncc(Cc4ccc(Cl)cc4)s3)cc2)SC1=S ) is 58

# growth (compound: CCC(C)N(c1ccc(Cl)cc1)c1nc(-c2ccc(Br)cc2)cs1 (stereo not given) ) is 88.6

====

System: HCT-116 colon
test_method_notes: NCI-60 one-dose screen, 48 h (100 = growth as untreated, 0 = no growth, -100 = all killed)
recorded_conditions: 10 µM unless noted
The panel holds about 83,000 compounds, 20% with a hit somewhere; the sample as a whole holds those more often.
Binarize growth at 80%; below is yes, at or above is no.

Past entries and their recorded results:
>  <molecule>
O=Cc1ccc([N+](=O)[O-])s1

>  <cat>
yes

$$$$
>  <molecule>
O=C(NCCCN1CCOCC1)c1cccc(N2C(=O)/C(=C/c3ccc(F)cc3)SC2=S)c1

>  <cat>
no

$$$$
>  <molecule>
Fc1cc(F)cc(C(c2c[nH]c3ccccc23)c2c[nH]c3ccccc23)c1

>  <cat>
no

$$$$
>  <molecule>
CCCCCCCCCCCCCCCC(N)c1ccccc1 (stereo unspecified)

>  <cat>
yes

$$$$

Please state whether growth is below 80% for COc1ccc2cc(-c3ccc(NC(C)=O)c(=O)o3)ccc2c1 no

Please state whether growth is below 80% for CCOC(=O)c1cc(C(=O)c2cc(OC)c(OC)c(OC)c2)n2ccc(-c3ccncc3)cc12 yes

====

Test system: U251 CNS
test_method_notes: NCI-60 one-dose screen, 48 h (100 = growth as untreated, 0 = no growth, -100 = all killed)
recorded_conditions: 10 µM unless noted
This is part of a sample that, as a whole, favours compounds with a hit. Of some 83,000 tested, about 20% had one in any assay. Active and inactive are the calls of the source. How the source made its calls: active means growth percent below 10; inactive means the rest.
Listing: growth of selected molecules

# growth (molecule: S=C(Nc1ccc(-c2nc(N3CCOCC3)c3cccn3n2)cc1)Nc1cccnc1 ) is 31.7% (inactive)

# growth (molecule: COc1cccc([C@H]2c3[nH]c4ccccc4c3C[C@H]3C(=O)N(CCCCCCC(=O)NO)CC(=O)N23)c1 ) is 61.5% (inactive)

# growth (molecule: C#CCOc1ccc2ncnc(Nc3cccc(NC(=O)C=C)c3)c2c1 ) is 73.1% (inactive)

# growth (molecule: O=Cc1ccc([N+](=O)[O-])s1 ) is 89.6% (inactive)

# growth (molecule: C/C(Nc1ccc(Cl)c(Cl)c1)=C1\CCOC1=O ) is 91% (inactive)

# growth (molecule: Cc1cc2c([nH]1)CSc1cc(S(=O)(=O)c3ccccc3)c(=O)[nH]c1-2 ) is 15.5% [100 µM] (inactive)

====

System: RPMI-8226 leukemia
test_method_notes: NCI-60 one-dose screen, 48 h (100 = growth as untreated, 0 = no growth, -100 = all killed)
recorded_conditions: 10 µM unless noted
The panel holds about 83,000 compounds, 20% with a hit somewhere; the sample as a whole holds those more often.
Listing: growth of selected molecules
Only the number, expressed in %, is required.

>  <molecule>
Cc1cccc2c1NC(=O)C2(c1ccc(O)cc1)c1ccc(O)cc1

>  <target_system>
RPMI-8226 leukemia

>  <growth [%]>
80.9

$$$$
>  <molecule>
Cn1c(=O)c2c(nc(NC3=NS(=O)(=O)c4ccccc43)n2CC(=O)N2CCc3ccccc32)n(C)c1=O

>  <target_system>
RPMI-8226 leukemia

>  <growth [%]>
108

$$$$
>  <molecule>
Cc1ccc(-c2nc(/C=C3/C(=O)Nc4ccccc43)c3ccccn23)cc1

>  <target_system>
RPMI-8226 leukemia

>  <growth [%]>
79.3

$$$$
>  <molecule>
O=C1CC(N2C(=O)/C(=C/C(Cl)=C\c3ccc([N+](=O)[O-])cc3)SC2=S)C(=O)N1c1ccc(Cl)cc1 (centres undefined)

>  <target_system>
RPMI-8226 leukemia

>  <growth [%]>
-1.96

$$$$
>  <molecule>
CO[C@H]1/C=C(/C)CCC[C@H](C)[C@H](O)[C@@H](C)C(=O)C(C)(C)[C@@H](O)CC(=O)O[C@@H]1/C(C)=C/c1csc(C)n1

>  <target_system>
RPMI-8226 leukemia

>  <growth [%]>
14.2

$$$$
>  <molecule>
Clc1ccc2c(c1)N(c1ncnc3ccc(-c4cnc5[nH]ncc5c4)cc13)CC2

>  <target_system>
RPMI-8226 leukemia

>  <growth [%]>
16.9

$$$$
>  <molecule>
Cc1cc(Cl)ccc1NC(=O)c1cc2ccccc2cc1O

>  <target_system>
RPMI-8226 leukemia

>  <growth [%]>
6.82

$$$$
>  <molecule>
O=C(OCc1ccc2cccc(O)c2n1)N1CCN(C(=O)c2cc3cc(F)ccc3[nH]2)CC1

>  <target_system>
RPMI-8226 leukemia

>  <growth [%]>
-26.1

$$$$

Okay, now this molecule:
# growth (molecule: Clc1ccc(Nc2nnc(COc3ccccc3)c3ccccc23)cc1 ) is -25.3
